Numbers sourced from paper PMC10488223.

target under test: butirrylcholinesterase from equine serum (BuChE) (Equus caballus)
Construct: butirrylcholinesterase from equine serum (BuChE); purchased Sigma-Aldrich (Milano, Italy); host or cells: equine serum
assay name: biochemical
condition description: from Km and Vmax at different inhibitor concentrations
measurement type: inhibition type determined for BuChE

Completed entries (count: 5):
Specify the recorded inhibition type determined for BuChE for O=C(OCCc1ccc(O)c(O)c1)C1CCN(Cc2ccccc2)CC1 [HT1] , system: butirrylcholinesterase from equine serum (BuChE) (Equus caballus). mixed

Recall the reported inhibition type determined for BuChE of CC(=O)Oc1ccc(CCOC(=O)C2CCN(Cc3ccccc3)CC2)cc1 [HT4a] on butirrylcholinesterase from equine serum (BuChE) (Equus caballus) and write it down. mixed

Name the recorded inhibition type determined for BuChE of COc1cc(CCOC(=O)C2CCN(Cc3ccccc3)CC2)ccc1O [HT3] , assay system butirrylcholinesterase from equine serum (BuChE) (Equus caballus). mixed

Please respond with reported inhibition type determined for BuChE (system butirrylcholinesterase from equine serum (BuChE) (Equus caballus)) for COc1cc(CCOC(=O)C2CCN(Cc3ccccc3)CC2)ccc1OC(C)=O [HT3a] . noncompetitive

Please tell me the measured inhibition type determined for BuChE for O=C(OCCc1ccc(O)cc1)C1CCN(Cc2ccccc2)CC1 [HT4] ; system: butirrylcholinesterase from equine serum (BuChE) (Equus caballus). noncompetitive

New cases:
Please respond with reported inhibition type determined for BuChE (system butirrylcholinesterase from equine serum (BuChE) (Equus caballus)) for O=C(OCCc1cc(O)c(O)cc1[N+](=O)[O-])C1CCN(Cc2ccccc2)CC1 [HT2] . mixed

State inhibition type determined for BuChE (butirrylcholinesterase from equine serum (BuChE) (Equus caballus)) of CC(=O)Oc1ccc(CCOC(=O)C2CCN(Cc3ccccc3)CC2)cc1OC(C)=O [HT1a] . mixed

----------
target under test: butirrylcholinesterase from equine serum (BuChE) (Equus caballus, UniProt P81908)
Construct: butirrylcholinesterase from equine serum (BuChE)
Sequence (P81908 whole entry): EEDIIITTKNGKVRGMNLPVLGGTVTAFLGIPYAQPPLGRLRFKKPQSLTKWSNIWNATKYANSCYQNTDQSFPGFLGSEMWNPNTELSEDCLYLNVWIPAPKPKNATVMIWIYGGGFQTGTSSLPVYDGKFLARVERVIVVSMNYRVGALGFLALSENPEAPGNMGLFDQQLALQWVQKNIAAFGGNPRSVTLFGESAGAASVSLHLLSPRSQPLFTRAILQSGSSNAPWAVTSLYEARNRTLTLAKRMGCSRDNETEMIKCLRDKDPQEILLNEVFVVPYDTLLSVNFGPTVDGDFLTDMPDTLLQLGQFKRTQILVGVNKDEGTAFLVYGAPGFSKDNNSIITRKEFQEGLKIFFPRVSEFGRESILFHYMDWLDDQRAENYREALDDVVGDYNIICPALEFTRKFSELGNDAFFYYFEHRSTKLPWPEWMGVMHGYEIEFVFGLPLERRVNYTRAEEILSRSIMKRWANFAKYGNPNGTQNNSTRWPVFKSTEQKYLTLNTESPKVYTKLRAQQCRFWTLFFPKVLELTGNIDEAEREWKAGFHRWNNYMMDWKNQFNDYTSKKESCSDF
assay name: biochemical
condition description: mean ± SD, three determinations; pH 7.4, 500 μM butirrylthiocholine
measurement type: IC50 (µM)
Your answer is read as µM, so omit the unit and give the number.

// fetch IC50 given entry CC(=O)Oc1ccc(CCOC(=O)C2CCN(Cc3ccccc3)CC2)cc1 [HT4a] 4.1

Determine from records and report IC50 for O=C(OCCc1ccc(O)cc1)C1CCN(Cc2ccccc2)CC1 [HT4] 22.9

Determine its reported IC50: CC(=O)Oc1ccc(CCOC(=O)C2CCN(Cc3ccccc3)CC2)cc1OC(C)=O [HT1a] 4.2

Report IC50, nothing else, for this compound: COc1cc(CCOC(=O)C2CCN(Cc3ccccc3)CC2)ccc1O [HT3] 7.2

State its IC50 for this compound: COc1cc(CCOC(=O)C2CCN(Cc3ccccc3)CC2)ccc1OC(C)=O [HT3a] 4.3

Supply recorded IC50 for O=C(OCCc1cc(O)c(O)cc1[N+](=O)[O-])C1CCN(Cc2ccccc2)CC1 [HT2] here. 31.8

Specify reported IC50 for the compound shown: O=C(OCCc1ccc(O)c(O)c1)C1CCN(Cc2ccccc2)CC1 [HT1] 20.3

----------
Can you tell me pIC50 for the items I'm about to list?
target under test: Acetylcholinesterase from Electrophorus electricus (AChE) (Electrophorus electricus, UniProt O42275)
Sequence (O42275 24-633): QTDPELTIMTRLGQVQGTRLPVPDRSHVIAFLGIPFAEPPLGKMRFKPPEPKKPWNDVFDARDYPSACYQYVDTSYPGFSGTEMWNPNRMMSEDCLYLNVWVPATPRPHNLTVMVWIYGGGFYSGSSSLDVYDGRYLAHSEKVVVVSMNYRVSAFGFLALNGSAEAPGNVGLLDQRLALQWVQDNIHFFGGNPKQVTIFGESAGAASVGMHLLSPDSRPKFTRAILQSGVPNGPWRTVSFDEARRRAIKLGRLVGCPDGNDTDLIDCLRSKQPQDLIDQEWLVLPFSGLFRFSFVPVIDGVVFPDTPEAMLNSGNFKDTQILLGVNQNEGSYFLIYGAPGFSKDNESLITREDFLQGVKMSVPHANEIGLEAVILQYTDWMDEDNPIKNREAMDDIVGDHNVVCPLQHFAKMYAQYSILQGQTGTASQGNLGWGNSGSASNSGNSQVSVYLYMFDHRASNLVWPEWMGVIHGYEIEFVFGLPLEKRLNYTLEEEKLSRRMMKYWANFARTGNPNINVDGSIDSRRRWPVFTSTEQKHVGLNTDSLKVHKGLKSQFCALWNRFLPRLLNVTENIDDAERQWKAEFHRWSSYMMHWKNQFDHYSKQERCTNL
Note on units: pIC50 is unitless, being -log10 of a concentration expressed in mol/L.

Answer with reported pIC50 of O=C(OCCc1ccc(O)cc1)C1CCN(Cc2ccccc2)CC1 [HT4] 5.31

Supply measured pIC50 of O=C(OCCc1ccc(O)c(O)c1)C1CCN(Cc2ccccc2)CC1 [HT1] in your reply. 5.19

Give the value of pIC50 reported for the following: COc1cc(CCOC(=O)C2CCN(Cc3ccccc3)CC2)ccc1OC(C)=O [HT3a] 5.59

Check the records and state pIC50 for COc1cc(CCOC(=O)C2CCN(Cc3ccccc3)CC2)ccc1O [HT3] 5.40

Input CC(=O)Oc1ccc(CCOC(=O)C2CCN(Cc3ccccc3)CC2)cc1OC(C)=O [HT1a] , output reported pIC50. 5.37

Give recorded pIC50. O=C(OCCc1cc(O)c(O)cc1[N+](=O)[O-])C1CCN(Cc2ccccc2)CC1 [HT2] 5.42

Please list pIC50 recorded for the compound CC(=O)Oc1ccc(CCOC(=O)C2CCN(Cc3ccccc3)CC2)cc1 [HT4a] 5.54
